B1: Zinc finger homeobox protein 3, residues 2643 to 2698; numbered along this chain, Q15911 (parent)
chain: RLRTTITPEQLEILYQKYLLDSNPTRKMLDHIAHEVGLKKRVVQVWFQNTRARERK

- Variants of: B1
- method: abundance fitness (aPCA) (normalised: wild type 0, dead -1); higher = more abundant; growth selection in yeast, the domain comes from the species named
- stated.conditions: Homo sapiens
Each entry falls in a class defined on abundance fitness; the bands are lo: < -0.7; med: ≥ -0.7 and < -0.2; hi: ≥ -0.2

Y18K :: med
G37Y :: lo
K27G :: hi
T50E :: hi
R51V :: hi
V36G :: lo
E35A :: hi
Q10V :: med
V36Y :: lo
L14V :: lo
T25M :: med
